Source listed as paper PMC9482650.

molecular target: GOPC, Q9HD26; test: holdup assay; parameters: key: below the threshold = too weak to quantify, mostly under pKd 3.1 to 4; details: plain residues with an end cap or a label only (N-terminal biotin on a linker: ado-ado)
Endpoint name: pKd

binder="AAVENKVTDL [PLXNB1, O43157]" test_value=3.65
binder="PTPDLPQTRV [KLHDC7A, Q5VTJ3]" test_value=4.89
binder="VLYPREGTEV [FOXI1, Q12951]" test_value=3.52
binder="GIKKITSTAL [RPS6KA3, P51812]" test_value=4.5
